# measuredOn: ATP-dependent translocase ABCB1 (Homo sapiens, UniProt P08183)
# Sequence (P08183 whole entry): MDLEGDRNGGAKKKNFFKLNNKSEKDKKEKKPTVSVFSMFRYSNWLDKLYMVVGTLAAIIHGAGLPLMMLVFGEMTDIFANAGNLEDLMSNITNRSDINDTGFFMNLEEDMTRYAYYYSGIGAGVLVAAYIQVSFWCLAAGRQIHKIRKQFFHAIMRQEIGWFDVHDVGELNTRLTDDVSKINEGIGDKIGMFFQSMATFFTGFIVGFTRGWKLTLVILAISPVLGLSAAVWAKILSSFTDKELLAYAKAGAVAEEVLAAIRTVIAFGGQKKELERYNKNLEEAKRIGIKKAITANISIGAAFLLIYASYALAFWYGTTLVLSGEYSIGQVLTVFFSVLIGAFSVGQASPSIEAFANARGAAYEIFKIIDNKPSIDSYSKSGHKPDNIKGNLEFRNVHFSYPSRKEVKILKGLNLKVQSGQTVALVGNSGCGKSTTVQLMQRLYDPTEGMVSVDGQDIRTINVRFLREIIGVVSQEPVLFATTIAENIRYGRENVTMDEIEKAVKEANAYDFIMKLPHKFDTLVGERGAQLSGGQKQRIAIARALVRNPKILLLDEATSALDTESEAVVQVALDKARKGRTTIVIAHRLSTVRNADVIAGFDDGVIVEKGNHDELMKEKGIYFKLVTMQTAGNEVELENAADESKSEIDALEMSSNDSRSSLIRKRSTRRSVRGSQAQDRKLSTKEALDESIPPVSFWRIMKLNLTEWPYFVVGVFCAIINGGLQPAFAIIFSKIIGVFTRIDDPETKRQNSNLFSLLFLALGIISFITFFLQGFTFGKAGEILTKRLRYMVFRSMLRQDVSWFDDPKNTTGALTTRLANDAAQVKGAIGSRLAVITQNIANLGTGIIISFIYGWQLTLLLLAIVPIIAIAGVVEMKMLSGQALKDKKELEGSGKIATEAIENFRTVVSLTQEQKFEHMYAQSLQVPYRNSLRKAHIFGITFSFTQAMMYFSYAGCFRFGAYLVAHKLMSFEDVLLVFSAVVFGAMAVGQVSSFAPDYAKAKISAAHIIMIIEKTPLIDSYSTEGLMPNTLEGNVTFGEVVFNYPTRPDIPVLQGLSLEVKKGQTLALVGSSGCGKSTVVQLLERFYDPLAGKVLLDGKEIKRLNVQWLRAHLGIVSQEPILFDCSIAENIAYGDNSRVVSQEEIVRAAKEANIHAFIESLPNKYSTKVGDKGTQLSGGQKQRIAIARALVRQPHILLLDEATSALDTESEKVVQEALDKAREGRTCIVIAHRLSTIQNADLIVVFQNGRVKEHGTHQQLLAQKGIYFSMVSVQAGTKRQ
# assayText: Reversal of human MDR1-mediated rhodamine 123 uptake in mouse L5178Y cells assessed as fluorescence activity ratio at 1 µM by flow cytometry relative to non p-gp expressing parental cell line
# Ratio listing for each entry below
Answer using only a numeral; do not append any unit.

Here is how some compounds turned out for Ratio.
[
  {
    "compound": "N#Cc1c(-c2ccccc2)ccn(Cc2ccccc2)c1=O",
    "Ratio": 0.99
  },
  {
    "compound": "COc1ccc(CCN(C)CCCC(C#N)(c2ccc(OC)c(OC)c2)C(C)C)cc1OC (stereo not drawn)",
    "Ratio": 0.89
  },
  {
    "compound": "O=C(OCc1ccccc1)c1c(-c2ccccc2)ccn(Cc2ccccc2)c1=O",
    "Ratio": 1.22
  },
  {
    "compound": "N#Cc1c(Cc2ccccc2)ccn(Cc2ccccc2)c1=O",
    "Ratio": 1.06
  },
  {
    "compound": "COC(=O)c1c(-c2ccc(OC)cc2)ccn(Cc2ccccc2)c1=O",
    "Ratio": 0.94
  }
]

Incoming: Value lookup for Ratio; key = COC(=O)c1c(-c2ccc(C)cc2)ccn(Cc2ccccc2)c1=O
Outgoing: 0.94

Incoming: Query (compound): COC(=O)c1c(Cc2ccccc2)ccn(Cc2ccccc2)c1=O ; field requested: Ratio
Outgoing: 1.09

Incoming: Query (compound): COC(=O)c1c(-c2ccccc2C)ccn(Cc2ccccc2)c1=O ; field requested: Ratio
Outgoing: 1.1

Incoming: I'd like to know its Ratio. The compound in question is COC(=O)c1c(-c2ccccc2)ccn(Cc2ccccc2)c1=O
Outgoing: 1.06

Incoming: Entry COc1ccccc1-c1ccn(Cc2ccccc2)c(=O)c1C#N has what Ratio?
Outgoing: 1.29

Incoming: Look at this compound and give its reported Ratio. Cc1ccccc1-c1ccn(Cc2ccccc2)c(=O)c1C#N
Outgoing: 1.05

Incoming: # input compound: COc1ccc(-c2ccn(Cc3ccccc3)c(=O)c2C#N)cc1 ; wanted: its Ratio
Outgoing: 1.05

Incoming: Entry Cc1ccc(-c2ccn(Cc3ccccc3)c(=O)c2C#N)cc1 has what Ratio?
Outgoing: 0.98
